The reported numbers originate from the supplement of paper PMC9170038.

tested on: K4 kissing-loop RNA reporter; assay: apparent KD of K4 kissing-loop reporter; higher = weaker reporter binding; conditions: Eterna round: R107; input ligand: FMN 200 uM;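 note: bound reporter read as fluorescence of individual clusters on recovered sequencing chips by microscopy, with normalized cluster intensities fitted with a binding model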

MACROMOLECULE_SEQUENCE	apparent KD of K4 kissing-loop reporter (nM)
UGUACCGAGUCAGGAUAUGGCGUCGAAAGACGAAACCAGUGAUGUUGGAAUCGAUCGAAAGAUCGUCCAGAAGGGACUUGGUACU [FmnBS 21 #SwitchBubble #StaticStem #DoubleMagnetSystem]	204
GCAAAACUCAGUGAUGUUGAGAUAUCGGAAGGAGCGCGUGAAAACGCAGGUAGGUCGCCGAUUCAAUGAGUUUCUCGUUGUUUGC [Arginine A K4 20]	248
GCAUCCGAUGCAGGAUAUAGAUGAACGAGUGAUGUUUGGAAUUUAUGUCCAAAGCCUACGAUCAAACUAGAAGGGCAUCGGAUGC	334
